test system: NCI-H1755; test: relative viability (nuclei count vs DMSO), 5 days (fraction); higher = more cells survive; conditions: first compound 0.3162 µM
# relative viability per entry

COMPOUND | relative viability
O=c1cc(N2CCOCC2)oc2c(-c3cccc4c3sc3ccccc34)cccc12 + O=C(CCCCCCC(=O)Nc1ccccc1)NO [Vorinostat] (partner 1 µM) | 0.741
CCN(CC)CCCCNc1ncc2cc(-c3cc(OC)cc(OC)c3)c(NC(=O)NC(C)(C)C)nc2n1 + Cc1cc(Nc2cc(N3CCN(C)CC3)nc(Sc3ccc(NC(=O)C4CC4)cc3)n2)n[nH]1 [Tozasertib] (partner 0.1 µM) | 0.622
O=c1cc(N2CCOCC2)oc2c(-c3cccc4c3sc3ccccc34)cccc12 + COc1cc2c(Oc3ccc(NC(=O)C4(C(=O)Nc5ccc(F)cc5)CC4)cc3F)ccnc2cc1OCCCN1CCOCC1 [Foretinib] (partner 0.25 µM) | 0.926
O=c1cc(N2CCOCC2)oc2c(-c3cccc4c3sc3ccccc34)cccc12 + CCNC(=O)c1noc(-c2cc(C(C)C)c(O)cc2O)c1-c1ccc(CN2CCOCC2)cc1 [Luminespib] (partner 0.01 µM) | 0.419
CCN(CC)CCCCNc1ncc2cc(-c3cc(OC)cc(OC)c3)c(NC(=O)NC(C)(C)C)nc2n1 + C[C@@H](Oc1cc(-c2cnn(C3CCNCC3)c2)cnc1N)c1c(Cl)ccc(F)c1Cl [Crizotinib] (partner 1 µM) | 0.984
CCN(CC)CCCCNc1ncc2cc(-c3cc(OC)cc(OC)c3)c(NC(=O)NC(C)(C)C)nc2n1 + CC(C)C[C@H](NC(=O)[C@H](Cc1ccccc1)NC(=O)c1cnccn1)B(O)O [Bortezomib] (partner 0.002 µM) | 1.07
CCN(CC)CCCCNc1ncc2cc(-c3cc(OC)cc(OC)c3)c(NC(=O)NC(C)(C)C)nc2n1 + NC(=O)Nc1cc(-c2cccc(F)c2)sc1C(=O)N[C@H]1CCCNC1 [AZD7762] (partner 0.2 µM) | 0.421
CCN(CC)CCCCNc1ncc2cc(-c3cc(OC)cc(OC)c3)c(NC(=O)NC(C)(C)C)nc2n1 + CS(=O)(=O)N1CCN(Cc2cc3nc(-c4cccc5[nH]ncc45)nc(N4CCOCC4)c3s2)CC1 [Pictilisib] (partner 1 µM) | 0.381
O=c1cc(N2CCOCC2)oc2c(-c3cccc4c3sc3ccccc34)cccc12 + CC(=O)c1c(C)c2cnc(Nc3ccc(N4CCNCC4)cn3)nc2n(C2CCCC2)c1=O [Palbociclib] (partner 0.5 µM) | 0.457
CCN(CC)CCCCNc1ncc2cc(-c3cc(OC)cc(OC)c3)c(NC(=O)NC(C)(C)C)nc2n1 + O=C(CCCCCCC(=O)Nc1ccccc1)NO [Vorinostat] (partner 1 µM) | 0.965
O=c1cc(N2CCOCC2)oc2c(-c3cccc4c3sc3ccccc34)cccc12 + CC1(C)CCC(c2ccc(Cl)cc2)=C(CN2CCN(c3ccc(C(=O)NS(=O)(=O)c4ccc(N[C@H](CCN5CCOCC5)CSc5ccccc5)c(S(=O)(=O)C(F)(F)F)c4)cc3)CC2)C1 [Navitoclax] (partner 0.5 µM) | 0.972
